experiment: Kinetic stability of ligands in simulated physiological conditions (UV-Vis); type: physicochemical; settings: rank among the 7 ligands, 1 = most stable
property-measured: Stability ranking (residual ligand after 4 h)

- structure-smiles: "O=C(/C=C/c1ccc(O)cc1)C(CCCN1C(=O)c2ccccc2C1=O)C(=O)/C=C/c1ccc(O)cc1"
  measured-result: 6
- structure-smiles: "COc1cc(/C=C/C(=O)C(CCC(=O)O)C(=O)/C=C/c2ccc(O)c(OC)c2)ccc1O"
  measured-result: 2
- structure-smiles: "O=C(O)CCC(C(=O)/C=C/c1ccc(O)cc1)C(=O)/C=C/c1ccc(O)cc1"
  measured-result: 4
- structure-smiles: "COc1cc(/C=C/C(O)=C/C(C)=O)ccc1OCCCBr"
  measured-result: 1

// switching to the query molecule
Identify measured Stability ranking (residual ligand after 4 h) corresponding to "COc1cc(/C=C/C(=O)C(CCCN2C(=O)c3ccccc3C2=O)C(=O)/C=C/c2ccc(O)c(OC)c2)ccc1O"
7

Sourced from paper PMC9321647
